Values were extracted from ChEMBL document CHEMBL1201862.

# Tested on: U-251
# Protocol: NCI tumour cell line growth inhibition, 48 h
The source made the active and inactive calls. Rule as the data show it: active = GI50 up to about 1.1 µM and inactive = higher.
Value Kind: GI50

input: Return reported GI50; argument: C[C@]12CC[C@H]3[C@@H](CC[C@]4(O)C[C@@H](O)CC[C@]34CO)[C@@]1(O)CC[C@@H]2C1=CC(=O)OC1 [STROPHANTHIDOL]
output: 2.7 µM (inactive)

input: Return reported GI50; argument: CCOC(=O)c1[nH]c2cccc3c2c1CC[C@H](NC(=O)C(F)(F)F)C3=O
output: 22.5 µM (inactive)

input: Return reported GI50; argument: COc1ccc(Nc2nc3cc(C(F)(F)F)ccc3nc2-c2ccccc2)cc1OC
output: 30.9 µM (inactive)
